Data origin, for the record: patent US8084621B2

Measured inhibition at 10 µM of individual entries
- Test system: Human Pancreatic Carcinoma Cells (PANC-1)
- Test protocol: Tumor cell proliferation assay (MTT), PANC-1
- Format: cell-based
- Recorded conditions: concentration of 10^−5 mol/L, preliminary screening, 72 hours, read-out: Inhibition rate % PANC-1
The figure you give is taken to be in %; do not add the unit.

Answered cases to consult:
molecule="Cc1[nH]c2c(c1C(=O)NCC(O)CN1CCCC1)CCC/C2=C1/C(=O)Nc2ccc(F)cc21 (centres unmarked) [I-71]" assay_value=97.4
molecule="CCN(CC)CCNC(=O)c1c(C)[nH]c2c1CCC/C2=C1/C(=O)Nc2ccccc21 [I-5]" assay_value=47.8

// recorded inhibition at 10 µM for CCN(CC)CCNC(=O)c1c(C)[nH]c2c1CCC/C2=C1/C(=O)Nc2ccc(F)cc21 [I-2] : 70.6

The reported inhibition at 10 µM of the molecule Cc1[nH]c2c(c1C(=O)NCC(O)CN1CCCCC1)CCC/C2=C1/C(=O)Nc2ccccc21 (centres unmarked) [I-73] was 48

inhibition at 10 µM reading for CCN(CC)CCNC(=O)c1c(C)[nH]c2c1CCC/C2=C1/C(=O)Nc2ccc(Cl)cc21 [I-3] : 69.8

According to the records, this molecule Cc1[nH]c2c(c1C(=O)NCC(O)CN1CCOCC1)CCC/C2=C1/C(=O)Nc2ccccc21 (centres unmarked) [I-67] displays inhibition at 10 µM of 31.5

Query Cc1[nH]c2c(c1C(=O)NCC(O)CN1CCCCC1)CCC/C2=C1/C(=O)Nc2ccc(F)cc21 (centres unmarked) [I-74] yields inhibition at 10 µM of 93.6

Recorded result, CCN(CC)CC(O)CNC(=O)c1c(C)[nH]c2c1CCC/C2=C1/C(=O)Nc2ccccc21 (centres unmarked) [I-63] , inhibition at 10 µM: 92.1
